measurement target: T1, recombinant human IL-6 (human, UniProt P05231 30-212)
T1 construct: Bought protein
T1 sequence (P05231 30-212 limits assumed): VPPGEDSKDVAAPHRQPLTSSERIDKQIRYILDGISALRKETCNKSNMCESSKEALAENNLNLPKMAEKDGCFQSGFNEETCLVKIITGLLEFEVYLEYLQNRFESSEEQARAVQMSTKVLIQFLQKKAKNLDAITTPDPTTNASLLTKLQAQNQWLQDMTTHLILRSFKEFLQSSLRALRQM
assay: SPR Biacore, supernatant Ab on Protein A chip, IL-6 analyte, 25 C
quantity kind: log10(Kd) (log10 of the value in nM)
Note the log scale: values are log10 of Kd expressed in nM.

binder="anti-IL-6 antibody, light chain Y48W (heavy chain WT) (antibody, V domains shown, See note of m2; also called WT / Y48W) VH: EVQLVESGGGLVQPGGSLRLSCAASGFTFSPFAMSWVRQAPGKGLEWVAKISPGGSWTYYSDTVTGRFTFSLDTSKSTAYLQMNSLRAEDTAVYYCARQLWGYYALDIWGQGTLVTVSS VL: DIQLTQSPSSLSASVGDRVTITCSASISVSYMYWYQQKPGKAPKLLIWDMSNLASGVPSRFSGSGSGTDFTLTISSLQPEDFATYYCMQWSGYPYTFGQGTKVEIK" quantity_kind=log10(Kd) assay_result=-0.45
binder="anti-IL-6 antibody, light chain Q89S (heavy chain WT) (antibody, V domains shown, See note of m2; also called WT / Q89S) VH: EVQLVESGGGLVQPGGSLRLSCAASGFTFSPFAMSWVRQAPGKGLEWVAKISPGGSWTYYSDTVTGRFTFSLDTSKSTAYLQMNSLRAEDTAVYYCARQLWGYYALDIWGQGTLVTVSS VL: DIQLTQSPSSLSASVGDRVTITCSASISVSYMYWYQQKPGKAPKLLIYDMSNLASGVPSRFSGSGSGTDFTLTISSLQPEDFATYYCMSWSGYPYTFGQGTKVEIK" quantity_kind=log10(Kd) assay_result=-0.12
binder="anti-IL-6 antibody, light chain Y31G (heavy chain WT) (antibody, V domains shown, See note of m2; also called WT / Y31G) VH: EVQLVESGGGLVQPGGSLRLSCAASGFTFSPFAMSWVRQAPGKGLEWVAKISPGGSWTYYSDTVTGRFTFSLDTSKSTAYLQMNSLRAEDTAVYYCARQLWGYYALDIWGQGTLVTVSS VL: DIQLTQSPSSLSASVGDRVTITCSASISVSGMYWYQQKPGKAPKLLIYDMSNLASGVPSRFSGSGSGTDFTLTISSLQPEDFATYYCMQWSGYPYTFGQGTKVEIK" quantity_kind=log10(Kd) assay_result=-0.18
binder="anti-IL-6 antibody, heavy chain variant II (M34W, G66D, I108V) / light chain variant V (M32L, M50D, M88Q) (antibody, V domains shown, See note of m39; also called M34W, G66D, I108V/ M32L, M50D, M88Q; II/V) VH: EVQLVESGGGLVQPGGSLRLSCAASGFTFSPFAWSWVRQAPGKGLEWVAKISPGGSWTYYSDTVTDRFTFSLDTSKSTAYLQMNSLRAEDTAVYYCARQLWGYYALDVWGQGTLVTVSS VL: DIQLTQSPSSLSASVGDRVTITCSASISVSYLYWYQQKPGKAPKLLIYDDSNLASGVPSRFSGSGSGTDFTLTISSLQPEDFATYYCQQWSGYPYTFGQGTKVEIK" quantity_kind=log10(Kd) assay_result=-0.64
binder="anti-IL-6 antibody, light chain S51K (heavy chain WT) (antibody, V domains shown, See note of m2; also called WT / S51K) VH: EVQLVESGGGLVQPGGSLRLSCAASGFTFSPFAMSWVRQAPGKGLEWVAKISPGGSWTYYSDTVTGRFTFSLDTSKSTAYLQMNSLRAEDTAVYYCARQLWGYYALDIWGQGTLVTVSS VL: DIQLTQSPSSLSASVGDRVTITCSASISVSYMYWYQQKPGKAPKLLIYDMKNLASGVPSRFSGSGSGTDFTLTISSLQPEDFATYYCMQWSGYPYTFGQGTKVEIK" quantity_kind=log10(Kd) assay_result=-0.27

Please report the recorded log10(Kd) for anti-IL-6 antibody, light chain Y95I (heavy chain WT) (antibody, V domains shown, See note of m2; also called WT / Y95I) VH: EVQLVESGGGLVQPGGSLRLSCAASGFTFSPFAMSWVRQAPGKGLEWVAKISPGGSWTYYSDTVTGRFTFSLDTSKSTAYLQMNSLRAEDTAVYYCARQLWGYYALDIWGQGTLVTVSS VL: DIQLTQSPSSLSASVGDRVTITCSASISVSYMYWYQQKPGKAPKLLIYDMSNLASGVPSRFSGSGSGTDFTLTISSLQPEDFATYYCMQWSGYPITFGQGTKVEIK .
0.87
